- Protocol notes: Evaluation of absolute bioavailability of Alfuzosin hydrochloride following oral administration of 10 mg Alfuzosin hydrochloride tablets under fed conditions.
- Format: ADME, organism-based
- Details: human, in vivo, at 10 mg, dietary status Fed, dosed compound id 46, dosed compound name ALFUZOSIN HYDROCHLORIDE, regimen Single dose, tissue Plasma
Outcome measure: bioavailability (%)
Numeric answer only, unit % assumed.

For COc1cc2nc(N(C)CCCNC(=O)C3CCCO3)nc(N)c2cc1OC.Cl (stereo unspecified) [ALFUZOSIN HYDROCHLORIDE] the molecule record lists bioavailability as 49

====

- Protocol notes: Evaluation of pharmacokinetic parameters for Alfuzosin hydrochloride following multiple oral or intravenous administration of Alfuzosin hydrochloride.
- Format: ADME, organism-based
- Set-up: dose 10 mg, route oral
- Details: human, in vivo; dietary status Fed, dose 10 mg, dosed compound id 46, dosed compound name ALFUZOSIN HYDROCHLORIDE, regimen Multiple dose, route oral, tissue Plasma
Outcome measure: Tmax (h)
Numeric answer only, unit h assumed.

For COc1cc2nc(N(C)CCCNC(=O)C3CCCO3)nc(N)c2cc1OC.Cl (stereo unspecified) [ALFUZOSIN HYDROCHLORIDE] the compound record lists Tmax as 8

====

- Protocol notes: Evaluation of pharmacokinetic parameters for Alfuzosin hydrochloride following multiple oral or intravenous administration of Alfuzosin hydrochloride.
- Format: ADME, organism-based
- Design: dose 10 mg, route oral
- Details: human, in vivo; dose 10 mg, dosed compound id 46, dosed compound name ALFUZOSIN HYDROCHLORIDE, regimen Multiple dose, route oral, tissue Plasma
Outcome measure: half-life (min)
Numeric answer only, unit min assumed.

For COc1cc2nc(N(C)CCCNC(=O)C3CCCO3)nc(N)c2cc1OC.Cl (stereo unspecified) [ALFUZOSIN HYDROCHLORIDE] the compound record lists half-life as 600

====

- Protocol notes: Evaluation of pharmacokinetic parameters for Alfuzosin hydrochloride following multiple oral or intravenous administration of Alfuzosin hydrochloride.
- Assay type: ADME, organism-based
- Design: dose 10 mg, route oral
- Details: human, in vivo, po, 10 mg; dietary status Fed, dosed compound id 46, dosed compound name ALFUZOSIN HYDROCHLORIDE, regimen Multiple dose, tissue Plasma; read-out: AUC(0-24)
Outcome measure: AUC

For COc1cc2nc(N(C)CCCNC(=O)C3CCCO3)nc(N)c2cc1OC.Cl (stereo unspecified) [ALFUZOSIN HYDROCHLORIDE] the compound record lists AUC as 194 ng·h/mL

====

- Protocol notes: Evaluation of pharmacokinetic parameters for Alfuzosin hydrochloride following multiple oral or intravenous administration of Alfuzosin hydrochloride.
- Format: ADME, organism-based
- Design: dose 10 mg, route oral
- Details: human, in vivo; dosed compound id 46, dosed compound name ALFUZOSIN HYDROCHLORIDE, gender male, regimen Multiple dose, route iv, tissue Plasma
Outcome measure: Vd (L/kg)
Numeric answer only, unit L/kg assumed.

For COc1cc2nc(N(C)CCCNC(=O)C3CCCO3)nc(N)c2cc1OC.Cl (stereo unspecified) [ALFUZOSIN HYDROCHLORIDE] the compound record lists Vd as 3.2
